Test system: HOP-92 NSCLC
test summary: NCI-60 one-dose screen, 48 h (100 = growth as untreated, 0 = no growth, -100 = all killed)
applied conditions: 10 µM
This is part of a sample that, as a whole, favours compounds with a hit. Of some 83,000 tested, about 20% had one in any assay.
Please respond with reported growth for every item in the list.
Numbers only, in %.

[[record]]
smiles_input = "CN1CCN(Cc2ccc(NC(=O)c3cncc(C#Cc4cnc5ccc(N[C@H]6CCOC6)nn45)c3)cc2C(F)(F)F)CC1"
measurement_units = "%"
readout_number = -79.4

[[record]]
smiles_input = "N#Cc1c(-c2ccc(F)cc2)nc(SCc2ccc(F)cc2)nc1N1CCOCC1"
measurement_units = "%"
readout_number = 34.3

[[record]]
smiles_input = "N#Cc1ccc(-c2nn(-c3ccc(C(=O)O)cc3)cc2CNc2cc(Cl)cc(Cl)c2)cc1"
measurement_units = "%"
readout_number = 46.8

[[record]]
smiles_input = "CC1=N/C(=C\\c2ccc(N(C)C)cc2)C(=O)N1CCc1ccc(S(N)(=O)=O)cc1"
measurement_units = "%"
readout_number = 96.5

[[record]]
smiles_input = "COc1ccc(CCN2C(=O)/C(=C/c3csc(C#N)n3)SC2=S)cc1OC"
measurement_units = "%"
readout_number = -5.19

[[record]]
smiles_input = "O=C(Nc1ccc(Cl)c(C(F)(F)F)c1)c1cncc(C#Cc2cnc3ccc(N4CCOCC4)nn23)c1"
measurement_units = "%"
readout_number = -48.6

[[record]]
smiles_input = "C=C1CC[C@H](C(=C)C)[C@H]2C=C(C)C(=O)C3=C(C(=O)[C@@](C)(O)C3)[C@H]12"
measurement_units = "%"
readout_number = -90.8

[[record]]
smiles_input = "CN1CCN(Cc2ccc(C(=O)Nc3cccc(Nc4ccc5c(O)cccc5n4)c3)cc2C(F)(F)F)CC1"
measurement_units = "%"
readout_number = -37.3


We now examine a further molecule.
Q: Which measured growth value corresponds to Brc1ccc(N/N=C/c2c[nH]c3ccccc23)nc1 ?
Result: -28.4
